assay: Solubility of compound in DMSO
Values of solubility greater than or equal to 800 µM map to TRUE; values below map to FALSE.

Before answering, review these 5 worked examples.
O=S1(=O)N=C(NCc2ccccc2)c2ccccc21 ... FALSE
O=C1N=S(=O)(Nc2ccccc2)c2ccccc21 (configuration not stated) ... TRUE
N=S1(=O)c2ccccc2C(=O)N1c1ccccc1 (configuration not stated) ... FALSE
O=C1NS(=O)(=O)c2ccccc21 ... TRUE
C[C@H](N[S@]1(=O)=NC(=O)c2ccccc21)c1ccccc1 ... FALSE

### Prompt Threshold query (solubility >= 800 µM) on O=S1(=O)N=C(Nc2ccccc2)c2ccccc21
### Response FALSE

###

assay: Distribution coefficient, log D of compound at pH 7.4; conditions: octanol/water
Classify as follows. Reported logD greater than or equal to 0.7: satisfied. Reported logD below: not satisfied.

O=C1c2ccccc2S(=O)(=O)N1Cc1ccccc1 ... not satisfied

### Prompt Assess whether reported logD for O=S1(=O)N=C(Nc2ccccc2)c2ccccc21 sits at 0.7 or higher.
### Response satisfied

### Prompt Same for N=S1(=O)c2ccccc2C(=O)N1c1ccccc1 (centres undefined)
### Response satisfied

###

test: Solubility of compound in DMSO
Outcome label depends on solubility relative to 900 µM: at/above gives met, below gives not met.

CCN=S1(=O)NC(=O)c2ccccc21 (stereo not drawn) ... met
CCNC1=NS(=O)(=O)c2ccccc21 ... met
C[C@H](NS1(=O)=NC(=O)c2ccccc21)c1ccccc1 (single isomer, unassigned) ... not met
N=S1(=O)c2ccccc2C(=O)N1Cc1ccccc1 (stereo not drawn) ... met
CCN1C(=O)c2ccccc2S1(=N)=O (stereo not drawn) ... not met
O=C1c2ccccc2S(=O)(=O)N1Cc1ccccc1 ... not met
CCN1C(=O)c2ccccc2S1(=O)=O ... not met

Next compound, please.
### Prompt Item O=C1N=S(=O)(NCc2ccccc2)c2ccccc21 (stereo not drawn) with solubility of 900 µM or above?
### Response not met

###

assay: Intrinsic clearance in human liver microsomes; settings: liver microsomes
READOUT_KIND: microsomal CLint

Take a look at these entries with their results.
O=S1(=O)N=C(NCc2ccccc2)c2ccccc21 ... < 3 µL/min/mg
CCNC1=NS(=O)(=O)c2ccccc21 ... < 3 µL/min/mg
N=S1(=O)c2ccccc2C(=O)N1Cc1ccccc1 (stereo not drawn) ... 19.2 µL/min/mg
O=C1N=S(=O)(Nc2ccccc2)c2ccccc21 (stereo not drawn) ... < 3 µL/min/mg
NS1(=O)=NC(=O)c2ccccc21 (stereo not drawn) ... < 3 µL/min/mg
NC1=NS(=O)(=O)c2ccccc21 ... < 3 µL/min/mg
C[C@H](NS1(=O)=NC(=O)c2ccccc21)c1ccccc1 (single isomer, unassigned) ... < 3 µL/min/mg
CCN=S1(=O)NC(=O)c2ccccc21 (stereo not drawn) ... < 3 µL/min/mg

### Prompt Which microsomal CLint is reported for this compound? N=S1(=O)c2ccccc2C(=O)N1c1ccccc1 (stereo not drawn)
### Response 93.5 µL/min/mg

### Prompt Okay, and C[C@H](N[S@]1(=O)=NC(=O)c2ccccc21)c1ccccc1 ?
### Response < 3 µL/min/mg

### Prompt Same question, O=C1N=S(=O)(NCc2ccccc2)c2ccccc21 (stereo not drawn) this time
### Response < 3 µL/min/mg

### Prompt Now the same for CCN1C(=O)c2ccccc2S1(=N)=O (stereo not drawn)
### Response < 3 µL/min/mg

### Prompt // next record O=S1(=O)N=C(Nc2ccccc2)c2ccccc21
### Response 85.4 µL/min/mg

###

pKa reference
test: Dissociation constant, pKa of the compound by UV absorbance method; type: physicochemical
Please state the value as a number alone, without comment.

CCN=S1(=O)NC(=O)c2ccccc21 (stereo unspecified) ... 6.9

### Prompt Fill in: pKa of NC1=NS(=O)(=O)c2ccccc21 is ___
### Response 11.4

### Prompt Repeat with N=S1(=O)c2ccccc2C(=O)N1Cc1ccccc1 (stereo unspecified)
### Response 8.7

### Prompt Item: N=S1(=O)c2ccccc2C(=O)N1c1ccccc1 (stereo unspecified)
### Response 8.3

###

biological target: hERG (KCNH2) (Homo sapiens); experiment: in vitro
Sequence (Q12809 whole entry): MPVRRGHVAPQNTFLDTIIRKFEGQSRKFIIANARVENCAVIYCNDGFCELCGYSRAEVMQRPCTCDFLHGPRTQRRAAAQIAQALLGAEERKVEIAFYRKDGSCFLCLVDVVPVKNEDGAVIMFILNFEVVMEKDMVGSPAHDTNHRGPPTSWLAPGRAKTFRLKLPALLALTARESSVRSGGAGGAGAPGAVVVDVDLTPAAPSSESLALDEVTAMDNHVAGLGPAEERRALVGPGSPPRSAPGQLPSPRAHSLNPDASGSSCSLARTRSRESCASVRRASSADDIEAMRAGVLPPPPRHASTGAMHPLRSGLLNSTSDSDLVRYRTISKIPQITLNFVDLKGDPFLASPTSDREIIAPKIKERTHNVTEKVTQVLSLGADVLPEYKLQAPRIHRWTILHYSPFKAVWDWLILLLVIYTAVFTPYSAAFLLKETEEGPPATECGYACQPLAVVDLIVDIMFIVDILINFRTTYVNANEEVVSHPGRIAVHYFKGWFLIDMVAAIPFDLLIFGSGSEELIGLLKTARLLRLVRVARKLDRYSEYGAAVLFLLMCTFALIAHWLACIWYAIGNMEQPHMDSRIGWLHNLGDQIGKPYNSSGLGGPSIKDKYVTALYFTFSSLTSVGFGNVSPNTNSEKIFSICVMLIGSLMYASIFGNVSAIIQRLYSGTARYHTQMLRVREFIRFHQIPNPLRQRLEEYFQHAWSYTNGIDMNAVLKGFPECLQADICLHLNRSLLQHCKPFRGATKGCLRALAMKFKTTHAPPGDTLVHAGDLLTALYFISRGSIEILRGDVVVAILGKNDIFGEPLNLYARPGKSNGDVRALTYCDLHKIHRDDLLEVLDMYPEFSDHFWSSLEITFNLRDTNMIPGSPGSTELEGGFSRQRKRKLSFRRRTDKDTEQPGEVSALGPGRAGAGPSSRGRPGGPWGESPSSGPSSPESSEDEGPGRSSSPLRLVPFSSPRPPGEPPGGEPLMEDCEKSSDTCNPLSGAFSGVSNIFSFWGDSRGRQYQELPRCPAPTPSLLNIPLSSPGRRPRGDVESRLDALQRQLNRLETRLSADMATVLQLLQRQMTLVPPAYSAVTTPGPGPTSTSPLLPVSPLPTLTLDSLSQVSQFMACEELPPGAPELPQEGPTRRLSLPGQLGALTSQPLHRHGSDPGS
Description: Inhibition of human ERG at 11 uM by single shot IonWork assay relative to control
READOUT_KIND: inhibition at 11 µM (%)
Report as a plain number; the unit % is understood.

Sample records with inhibition at 11 µM:
CCN1C(=O)c2ccccc2S1(=O)=O ... 3.6
O=C1N=S(=O)(NCc2ccccc2)c2ccccc21 (stereo not given) ... -1.9
CCN1C(=O)c2ccccc2S1(=N)=O (stereo not given) ... -4.7
O=C1N=S(=O)(Nc2ccccc2)c2ccccc21 (stereo not given) ... 5.2
O=S1(=O)N=C(NCc2ccccc2)c2ccccc21 ... 2.8

### Prompt Query: inhibition at 11 µM; subject: N=S1(=O)c2ccccc2C(=O)N1Cc1ccccc1 (stereo not given)
### Response -7.4

### Prompt What would you report for CCNC1=NS(=O)(=O)c2ccccc21 ?
### Response 18.4

### Prompt Would you kindly repeat that for N=S1(=O)c2ccccc2C(=O)N1c1ccccc1 (stereo not given) ?
### Response -25.6

### Prompt Please answer likewise for O=S1(=O)N=C(Nc2ccccc2)c2ccccc21
### Response 11.1

### Prompt How about this molecule: CCN=S1(=O)NC(=O)c2ccccc21 (stereo not given)
### Response 1.3

###

assay: Dissociation constant, pKa of the compound by potentiometric titretion method
READOUT_KIND: pKa
Provide a numeric answer; units are not to be included.

### Prompt # query: pKa of entry O=C1NS(=O)(=O)c2ccccc21
### Response 3.1

###

test: Intrinsic clearance in human liver microsomes; conditions: microsomes
READOUT_KIND: microsomal CLint

### Prompt Value lookup for microsomal CLint; key = O=C1NS(=O)(=O)c2ccccc21
### Response < 3 µL/min/mg

###

experiment: Fraction unbound in human plasma
Listed here are compounds together with their documented fraction unbound.

### Prompt Quick one: fraction unbound of C[C@H](N[S@]1(=O)=NC(=O)c2ccccc21)c1ccccc1 ?
### Response 0.014

### Prompt What about this compound? O=C1NS(=O)(=O)c2ccccc21 [SACCHARIN]
### Response 0.37

### Prompt Now give it for CCN=S1(=O)NC(=O)c2ccccc21 (configuration not stated) too.
### Response 0.41

### Prompt How about this compound: O=S1(=O)N=C(NCc2ccccc2)c2ccccc21
### Response 0.2

### Prompt What about O=S1(=O)N=C(Nc2ccccc2)c2ccccc21 ?
### Response 0.16

### Prompt One more compound: C[C@H](NS1(=O)=NC(=O)c2ccccc21)c1ccccc1 (single isomer, unassigned)
### Response 0.089

### Prompt What about NC1=NS(=O)(=O)c2ccccc21 ?
### Response 0.48

### Prompt Query O=C1N=S(=O)(NCc2ccccc2)c2ccccc21 (configuration not stated) next
### Response 0.12

###

assay: Apparent permeability of the compound across apical side to basolateral side in human Caco2 cells; conditions: Caco-2
rule met means recorded Papp A→B is 60 ×10⁻⁶ cm/s or above; rule not met means it is below 60 ×10⁻⁶ cm/s.

Examples with answers:
O=C1N=S(=O)(Nc2ccccc2)c2ccccc21 (stereo unspecified) ... rule not met
O=C1N=S(=O)(NCc2ccccc2)c2ccccc21 (stereo unspecified) ... rule met
CCN=S1(=O)NC(=O)c2ccccc21 (stereo unspecified) ... rule not met
C[C@H](N[S@]1(=O)=NC(=O)c2ccccc21)c1ccccc1 ... rule met
CCN1C(=O)c2ccccc2S1(=O)=O ... rule met

### Prompt # check: Papp A→B of C[C@H](NS1(=O)=NC(=O)c2ccccc21)c1ccccc1 (single isomer, unassigned) is greater than or equal to 60 ×10⁻⁶ cm/s
### Response rule not met

### Prompt What about O=C1NS(=O)(=O)c2ccccc21 ?
### Response rule not met

### Prompt Let us now turn to CCN1C(=O)c2ccccc2S1(=N)=O (stereo unspecified)
### Response rule met

###

assay: Distribution coefficient, log D of compound at pH 7.4; details: octanol/water
Collected logD values appear next to each entry.
Just the number, please, no unit attached.

C[C@H](NS1(=O)=NC(=O)c2ccccc21)c1ccccc1 (single isomer, unassigned) ... 0.8
N=S1(=O)c2ccccc2C(=O)N1Cc1ccccc1 (stereo unspecified) ... 1.8
C[C@H](N[S@]1(=O)=NC(=O)c2ccccc21)c1ccccc1 ... 1.4
NC1=NS(=O)(=O)c2ccccc21 ... 0.2
CCN=S1(=O)NC(=O)c2ccccc21 (stereo unspecified) ... 0.1

Now consider the entry below.
### Prompt Request the reported logD associated with CCNC1=NS(=O)(=O)c2ccccc21
### Response 0.7

###

This section presents compounds with their documented pKa values.
assay: Dissociation constant, pKa of the compound by UV absorbance method; type: physicochemical
Reply with the value as a number alone.

Solved entries (count: 3):
O=C1N=S(=O)(Nc2ccccc2)c2ccccc21 (configuration not stated) ... 4.1
O=C1N=S(=O)(NCc2ccccc2)c2ccccc21 (configuration not stated) ... 6.5
CCN1C(=O)c2ccccc2S1(=N)=O (configuration not stated) ... 8.9

### Prompt Please give the measured pKa for this compound: C[C@H](N[S@]1(=O)=NC(=O)c2ccccc21)c1ccccc1
### Response 6.62

### Prompt Now the compound NS1(=O)=NC(=O)c2ccccc21 (configuration not stated)
### Response 5.7

### Prompt Next: C[C@H](NS1(=O)=NC(=O)c2ccccc21)c1ccccc1 (single isomer, unassigned)
### Response 6.55

### Prompt One more compound: CCNC1=NS(=O)(=O)c2ccccc21
### Response 11.7
